- Test system: RAW264.7
- test-summary: Antiinflammatory activity against LPS-stimulated mouse RAW264.7 cells assessed as inhibition of LPS-induced TNFalpha production by measuring TNFalpha level at 50 uM preincubated for 2 hrs followed by LPS treatment and measured after 16 hrs by ELISA (reference value: 100 +/- 0.45%)
- Type: functional
Rule: YES for TNFalpha level (% of LPS control) not less than 70%, NO for anything less.

Example results:
| compound-string | class-name |
| --- | --- |
| N#C[C@H]1N2CCC[C@H]3[C@@H]2[C@H](CN2C(=O)CCC[C@H]32)[C@H]2O[C@]21[C@@H]1CC[C@H]2[C@@H]3[C@@H](CCCN31)CN1C(=O)CCC[C@H]21 | YES |
| O=C1CCC[C@@H]2[C@H]3CCCN4CCC[C@@H](CN12)[C@@H]34 | YES |

Below: the item to evaluate.
QUERY: Test whether the compound N#C[C@@H]1N2CCC[C@H]3CN4C(=O)CCC[C@@H]4[C@H]([C@H]32)[C@@H]2O[C@]12[C@H]1CC[C@H]2CN3C(=O)CCC[C@@H]3[C@H]3CCCN1[C@@H]23 records TNFalpha level (% of LPS control) of 70% or higher.
RESULT: NO
